Target: MMP-2 (Homo sapiens)
Construct: made in house; provided by Dr. Gregory Goldberg, Washington University
Sequence (P08253 110-660): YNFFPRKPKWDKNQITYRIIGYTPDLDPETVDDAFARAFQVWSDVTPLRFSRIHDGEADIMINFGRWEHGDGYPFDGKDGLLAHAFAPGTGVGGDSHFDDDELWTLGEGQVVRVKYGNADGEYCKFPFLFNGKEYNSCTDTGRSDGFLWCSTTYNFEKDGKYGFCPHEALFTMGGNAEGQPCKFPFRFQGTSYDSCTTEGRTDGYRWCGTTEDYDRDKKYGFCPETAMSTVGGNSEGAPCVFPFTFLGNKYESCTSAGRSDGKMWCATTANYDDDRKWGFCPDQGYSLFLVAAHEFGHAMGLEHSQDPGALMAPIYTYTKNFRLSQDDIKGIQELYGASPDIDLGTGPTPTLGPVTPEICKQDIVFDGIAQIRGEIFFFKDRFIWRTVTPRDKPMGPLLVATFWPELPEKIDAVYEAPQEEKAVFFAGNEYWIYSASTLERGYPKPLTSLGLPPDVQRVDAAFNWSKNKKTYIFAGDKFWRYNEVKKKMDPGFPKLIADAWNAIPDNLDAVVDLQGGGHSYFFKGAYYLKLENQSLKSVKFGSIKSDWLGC
Assay: biochemical
Settings: recombinant human MMP-2, MCA peptide substrate 4 μM, pH 7.5, room temperature; read-out: MMP-2 IC50
Structures can show the parent of a compound that is named as a salt.
Reported values of pIC50 for individual entries
Bear in mind: pIC50 is minus log10 of a mol/L concentration; give just that figure.

Please review the following examples before continuing.
Input O=C(c1ccc(OC(F)(F)F)cc1)N1CCN(c2ccc(S(=O)(=O)C3(C(=O)NO)CCOCC3)cc2)CC1 [Example 595] . Output pIC50: 6.37

Input COCCN1CCC(C(=O)NO)(S(=O)(=O)c2ccc(N3CCC(C(=O)Nc4ccc(OC(F)(F)F)cc4)CC3)cc2)CC1 [Example 248, Monohydrochloride] . Output pIC50: 6.57

More entries:
Input CCOc1ccc(C(=O)C2CCN(c3ccc(S(=O)(=O)C4(C(=O)NO)CCOCC4)cc3)CC2)cc1 [Example 791] . Output pIC50: 6.15

Input O=C(NO)C1(S(=O)(=O)c2ccc(N3CCN(c4ccc(Cl)cc4)CC3)cc2)CCN(C2CC2)CC1 [Example 354] . Output pIC50: 7.81

Input O=C(NO)C1(S(=O)(=O)c2ccc(N3CCC(Oc4ccc(OC(F)(F)F)cc4)CC3)cc2)CCOCC1 [Example 480] . Output pIC50: 6.81

Input O=C(NO)C1(S(=O)(=O)c2ccc(N3CCC(Oc4ccc(C(F)(F)F)cc4[N+](=O)[O-])CC3)cc2)CCOCC1 [Example 571] . Output pIC50: 6.85

Input C#CCN1CCC(C(N)=O)(S(=O)(=O)c2ccc(Sc3ccccc3)cc2)CC1 [Example 2] . Output pIC50: 5.22

* * *

Target: MMP-2 (Homo sapiens)
Construct: made in house; provided by Dr. Gregory Goldberg, Washington University
Assay: biochemical
Settings: recombinant human MMP-2, MCA peptide substrate 4 μM, pH 7.5, room temperature; read-out: MMP-2 IC50
pIC50: −log10 of the molar value. Structures can show the parent of a compound that is named as a salt.
Lab note: anything with pIC50 at or over 7 counts as label 1; the rest go in label 0.

Answered cases to consult:
In: Check the entry O=C(NO)C1(S(=O)(=O)c2ccc(N3CCN(c4ccccc4Cl)CC3)cc2)CCOCC1 : does pIC50 equal or exceed 7?
Out: label 1

In: Check the entry COCCN1CCC(C(=O)NO)(S(=O)(=O)c2ccc(N3CCC(C(=O)NCCCc4ccccc4)CC3)cc2)CC1 [Example 237, Monohydrochloride] : does pIC50 equal or exceed 7?
Out: label 0

In: Check the entry O=CN1CCC(C(=O)NO)(S(=O)(=O)c2ccc(Oc3ccc(OC(F)(F)F)cc3)cc2)CC1 [Example 452] : does pIC50 equal or exceed 7?
Out: label 1

In: Check the entry O=C(CNCCO)N1CCC(C(=O)NO)(S(=O)(=O)c2ccc(Oc3ccc(C(F)(F)F)cc3)cc2)CC1 : does pIC50 equal or exceed 7?
Out: label 1

In: Check the entry O=C(NO)C1(S(=O)(=O)c2ccc(N3CCC(OCc4cccc(C(F)(F)F)c4)CC3)cc2)CCN(C2CC2)CC1 : does pIC50 equal or exceed 7?
Out: label 0

In: Check the entry CC1CC(C)CN(C(=O)C2CCN(c3ccc(S(=O)(=O)C4(C(=O)NO)CCN(C(=O)CNCCO)CC4)cc3)CC2)C1 (stereo not shown) : does pIC50 equal or exceed 7?
Out: label 0

More entries:
In: Check the entry C=CCC(=O)C1CCN(c2ccc(S(=O)(=O)C3(C(=O)NO)CCOCC3)cc2)CC1 : does pIC50 equal or exceed 7?
Out: label 0
